Property: koff; scope: individual binders
# Tested On: T1, His-tagged human HVEM (human, UniProt Q92956 39-202, limits assumed)
# T1 construct: Analyte of the BLI assay, 200 nM in PBS; not shown: His tag
# T1 sequence (looked up): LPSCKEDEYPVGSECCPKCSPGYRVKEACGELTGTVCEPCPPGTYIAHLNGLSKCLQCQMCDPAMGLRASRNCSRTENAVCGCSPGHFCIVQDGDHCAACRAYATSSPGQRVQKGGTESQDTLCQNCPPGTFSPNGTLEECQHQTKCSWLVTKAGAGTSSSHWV
# Test: BLI OctetRed96, mAb captured, 200 nM His-HVEM

>  <Binder>
Ab_001 (H5S14-1A1A) (antibody, V domains shown, also called Ab_1) VH: DVKLVESGGGLVKPGGSLKLSCAASVFTFSRYTMSWVRQTPEKRLEWVATISSGGSYTYYPDSVKGRFTISRDNAKNTLYLQMSSLKSEDTAIYYCTRGGDGLFDYWGQGTALTVSS VL: DVQITQSPSYLAASPGETITINCRASKSISKYLAWYQEKPGKTNQLLIYSGSTLQSGIPSRFSGSGSGTDFTLTISSLEPEDFAMYYCQQHNEYPWTFGGGTKLEIK

>  <koff (s⁻¹)>
0.154

$$$$
>  <Binder>
Ab_006 (H5S14-5A5A) (antibody, V domains shown, also called Ab_6) VH: DVQLQESGPGLVKPSQSLSLTCTVTGYSITSDFAWNWIRQFPGNKLEWMGYIVYSGSTSYNPSLKSRISITRDTSKNQFFLQLNSVTAEDTATYFCTRGMDYWGQGTSVTVSS VL: QIVLTQSPAIISASLGEEVTLTCSASSSVSYMHWYQQKSGTSPKLLIYSTSNLASGVPSRFSGSGSGTFYSLTISSVEAEDAADYYCHQWSSYLTFGAGTKLELK

>  <koff (s⁻¹)>
0.00692

$$$$
>  <Binder>
Ab_008 (H5S14-11A10A) (antibody, V domains shown, also called Ab_8) VH: EVKLVESGGGLVKPGGSLRLSCAASGFTFSSFAMSWIRQTPEKGLEWVASITTGGSSYSPDSLKGRFTISRDNVRNIVYLQMSSLRSEDTAMYACARGGGGNYFWFAYWGQGTLVTVSA VL: DVVMTQTPLSLPVSLGDQASISCRSSQSLVHSNGNTYLHWYLQKPGQSPKLLIYKVSNRFSGVPDRFSGSGSGTDFTLKISRVEAEDLGVYFCSQSIHVPFTFGSGTKLEIK

>  <koff (s⁻¹)>
0.00231

$$$$
